# credit: patent US12258327B2

Item-by-item account of log10 of IC50
Target: EGFR L858R/T790M/C797S (Homo sapiens, UniProt P00533, C797S/L858R/T790M)
Sequence (P00533 25-1210 T790M/C797S/L858R): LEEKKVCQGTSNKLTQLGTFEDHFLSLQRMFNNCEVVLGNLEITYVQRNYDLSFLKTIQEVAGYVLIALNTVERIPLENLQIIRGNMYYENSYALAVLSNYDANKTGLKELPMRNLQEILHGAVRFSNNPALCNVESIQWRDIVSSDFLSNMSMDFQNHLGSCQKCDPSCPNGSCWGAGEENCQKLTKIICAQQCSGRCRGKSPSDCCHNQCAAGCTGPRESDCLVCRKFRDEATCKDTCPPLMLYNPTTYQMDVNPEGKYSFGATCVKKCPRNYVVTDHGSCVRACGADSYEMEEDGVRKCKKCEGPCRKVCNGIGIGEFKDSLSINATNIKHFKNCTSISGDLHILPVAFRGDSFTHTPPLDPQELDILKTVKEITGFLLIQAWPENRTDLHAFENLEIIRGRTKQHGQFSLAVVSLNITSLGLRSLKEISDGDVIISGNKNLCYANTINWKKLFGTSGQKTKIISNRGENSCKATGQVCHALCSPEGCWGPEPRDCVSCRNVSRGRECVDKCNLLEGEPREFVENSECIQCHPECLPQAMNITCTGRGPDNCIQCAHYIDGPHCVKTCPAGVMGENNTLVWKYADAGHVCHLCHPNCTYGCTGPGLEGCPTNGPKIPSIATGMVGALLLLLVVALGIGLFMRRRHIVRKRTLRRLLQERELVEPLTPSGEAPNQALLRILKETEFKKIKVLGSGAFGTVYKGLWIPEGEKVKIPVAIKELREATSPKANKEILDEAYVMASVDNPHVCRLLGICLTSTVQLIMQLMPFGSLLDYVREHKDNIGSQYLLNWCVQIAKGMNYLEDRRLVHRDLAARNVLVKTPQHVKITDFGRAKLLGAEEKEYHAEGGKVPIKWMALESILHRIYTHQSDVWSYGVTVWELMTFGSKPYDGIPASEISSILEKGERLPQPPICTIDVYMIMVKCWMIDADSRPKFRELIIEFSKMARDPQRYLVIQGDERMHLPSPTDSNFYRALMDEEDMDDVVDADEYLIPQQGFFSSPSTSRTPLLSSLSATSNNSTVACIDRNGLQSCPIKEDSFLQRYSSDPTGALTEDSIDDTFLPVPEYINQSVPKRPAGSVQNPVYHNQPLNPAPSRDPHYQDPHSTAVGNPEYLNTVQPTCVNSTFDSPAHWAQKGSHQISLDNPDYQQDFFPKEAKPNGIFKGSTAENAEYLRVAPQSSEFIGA
Assay: Biochemical EGFR kinase assay (Lance Ultra TR-FRET), triple mutant L858R/T790M/C797S
Details: IC50 L858R/T790M/C797S (nM) 100 μM ATP, 100 μM ATP
Hey, these are logged values: log10 of IC50, nM being the unit before logging.

Guide cases for log10 of IC50, answers given:
INSERT INTO results (compound, measurement_name, test_value) VALUES
  ('CNC[C@H]1CC[C@H](CNc2cc(Nc3ccnc(-c4cnn(S(=O)(=O)C5CC5)c4)n3)ncc2-c2ccn(C(F)F)n2)CC1 [Example 192]', 'log10 of IC50', -0.70),
  ('CC1(N)CCC(Oc2cc(Nc3ccnc(-c4cnn(S(=O)(=O)C5CC5)c4)n3)ncc2-c2cnn(C(F)F)c2)CC1 (centres unmarked) [Example 74]', 'log10 of IC50', 1.40);

Ask | Answer with the recorded log10 of IC50 for the compound listed here: Cn1nc(-c2cnc(Nc3ccnc(-c4cnn(S(=O)(=O)C5CC5)c4)n3)cc2N[C@H]2CCC[C@H](CO)C2)cc1C(F)(F)F [Example 260]
Reply | 0.63

Ask | Specify reported log10 of IC50 for the compound shown: CN1CC(Nc2cc(Nc3ccnc(-c4cnn(S(=O)(=O)C5CC5)c4)n3)ncc2-c2ccn(C(F)F)n2)CCC1=O (centres unmarked) [Example 37]
Reply | 0.82

Ask | Determine from records and report log10 of IC50 for Cc1cc(-c2cnc(Nc3ccnc(-c4cnn(S(=O)(=O)C5CC5)c4)n3)cc2N[C@H]2CC[C@@H](CO)CC2)nn1C [Example 280]
Reply | -0.15

Ask | Dear colleague, please send me the reported log10 of IC50 for CO[C@H]1CCN(c2nccc(Nc3cc(N[C@H]4CC[C@@](C)(O)CC4)c(-c4ccn(C(F)F)n4)cn3)n2)C[C@H]1F [Example 111] when you can.
Reply | -0.70

Ask | Specify reported log10 of IC50 for the compound shown: O=S(=O)(C1CC1)n1cc(-c2nccc(Nc3cc(NCC4CC5(CNC5)C4)c(-c4ccn(C(F)F)n4)cn3)n2)cn1 [Example 26]
Reply | -0.52

Ask | Look up and report measured log10 of IC50 for this entry: O=S(=O)(C1CC1)n1cc(-c2nccc(Nc3cc(NC4CCC(CCO)CC4)c(-c4ccn(C(F)F)n4)cn3)n2)cn1 (centres unmarked) [Example 133]
Reply | 0.51

Ask | Determine from records and report log10 of IC50 for CN(C)C(=O)[C@H]1CC[C@@H](Nc2cc(Nc3ccnc(-c4cnn(S(=O)(=O)C5CC5)c4)n3)ncc2-c2ccn(C(F)F)n2)CC1 [Example 201]
Reply | -0.30
